Target Under Test: T1, human IGSF11 (VSIG3) ECD, His-tagged (human, UniProt Q5DX21 23-241)
T1 construct: in part bought (SinoBiological 13094-H08H); also called HIS-IGSF11; IGSF11-HIS; not shown: His tag
T1 sequence: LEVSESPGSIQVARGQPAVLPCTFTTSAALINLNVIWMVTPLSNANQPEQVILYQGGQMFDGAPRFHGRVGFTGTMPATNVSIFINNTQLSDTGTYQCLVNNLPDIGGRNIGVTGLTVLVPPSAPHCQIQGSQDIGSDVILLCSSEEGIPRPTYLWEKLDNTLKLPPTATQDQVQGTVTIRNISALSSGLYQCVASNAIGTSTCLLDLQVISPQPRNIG
Assay Procedure: ELISA: IGSF11-HIS coated, IgG1 dilution series, anti-human antibody-HRP, TMB
Reported EC50 (read off the curve) is given for each of the following binders.

Solved entries:
Binder	EC50 (read off the curve)
B-007 (chain-swapped IgG1) (antibody, V domains shown, human IgG1 format; also called B7) VH: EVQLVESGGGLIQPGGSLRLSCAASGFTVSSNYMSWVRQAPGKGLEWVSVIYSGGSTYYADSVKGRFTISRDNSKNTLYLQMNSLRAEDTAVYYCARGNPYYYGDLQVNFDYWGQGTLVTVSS VL: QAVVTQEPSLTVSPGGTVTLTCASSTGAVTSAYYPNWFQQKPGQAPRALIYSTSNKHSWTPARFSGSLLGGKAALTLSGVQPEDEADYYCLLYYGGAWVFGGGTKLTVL	~0.01 nM
B-004 (chain-swapped IgG1) (antibody, V domains shown, human IgG1 format; also called B4) VH: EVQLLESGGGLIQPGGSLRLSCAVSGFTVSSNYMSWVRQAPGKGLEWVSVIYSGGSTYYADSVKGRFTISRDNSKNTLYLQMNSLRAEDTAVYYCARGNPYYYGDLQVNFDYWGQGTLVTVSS VL: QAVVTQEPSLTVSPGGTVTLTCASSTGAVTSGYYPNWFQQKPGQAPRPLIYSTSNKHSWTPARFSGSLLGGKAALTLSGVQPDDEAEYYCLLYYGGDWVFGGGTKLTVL	~0.02 nM
B-006 (chain-swapped IgG1) (antibody, V domains shown, human IgG1 format; also called B6) VH: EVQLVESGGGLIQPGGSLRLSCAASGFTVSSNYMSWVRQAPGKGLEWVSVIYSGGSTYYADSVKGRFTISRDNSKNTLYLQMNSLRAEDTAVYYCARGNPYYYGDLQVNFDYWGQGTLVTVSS VL: QAVVTQEPSLTVSPGETVTLTCASSTGAVTSGYYPNWFQQRPGQAPRALIYSTSNKDSWTPARFSGSLLGGKAALTLSGVQPEDEAEYYCLLYYGGAWVFGGGTKLTVL	~0.02 nM

So for A-006 (IgG1 format) (antibody, V domains shown, human IgG1 format; also called A-006-like ABP) VH: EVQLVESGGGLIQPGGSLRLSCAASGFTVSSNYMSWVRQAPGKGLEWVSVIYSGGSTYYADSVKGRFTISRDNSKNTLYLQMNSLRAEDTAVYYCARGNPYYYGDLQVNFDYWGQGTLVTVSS VL: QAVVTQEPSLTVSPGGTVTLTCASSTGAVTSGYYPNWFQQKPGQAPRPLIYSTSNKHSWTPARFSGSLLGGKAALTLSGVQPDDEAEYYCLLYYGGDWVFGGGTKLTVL , the logged EC50 (read off the curve) turned out to be ~0.01 nM

So for B-002 (chain-swapped IgG1) (antibody, V domains shown, human IgG1 format; also called B2) VH: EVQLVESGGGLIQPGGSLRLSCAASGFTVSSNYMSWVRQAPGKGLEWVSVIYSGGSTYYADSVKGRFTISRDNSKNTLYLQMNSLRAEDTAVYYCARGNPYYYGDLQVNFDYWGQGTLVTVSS VL: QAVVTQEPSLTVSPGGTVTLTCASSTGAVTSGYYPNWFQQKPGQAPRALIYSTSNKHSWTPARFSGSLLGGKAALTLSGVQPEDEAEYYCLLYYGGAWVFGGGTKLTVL , the logged EC50 (read off the curve) turned out to be ~0.01 nM
